# assay name: Selectivity index, ratio of CC50 for human Huh7.5.1 cells infected with HCV JFH-1 virus to EC50 for HCV JFH-1 virus
Kindly return Y if reported selectivity ratio is no lower than 200; return N if it is lower.

> print(dat)
                                    compound  assigned.category
 1  NC(=O)COCCN1CCN(C(c2ccccc2)c2ccc(Cl)cc2)CC1 (racemic)                  Y
 2  CN1CCC(N(c2ccccc2)c2ccc(OC(C)(C)C)cc2)CC1                  Y
 3  CC(=O)NCCOCCOCCOCCOCCN1CCN(C(c2ccccc2)c2ccc(Cl)cc2)CC1 (racemic)                  Y
 4             c1ccc(C(c2ccccc2)c2ccncc2)cc1                  N
 5  CCCCN1CCN([C@H](c2ccccc2)c2ccc(Cl)cc2)CC1                  Y
 6  Clc1ccc(C(c2ccccc2)N2CCNCC2)cc1 (racemic) [NORCHLORCYCLIZINE]                  Y
 7  CCN1CCN(C2c3ccccc3-c3ccc(Br)cc32)CC1 (stereo not given)                  N
 8  OCCOCCN1CCN(C(c2ccccc2)c2ccc(Cl)cc2)CC1 (racemic) [HYDROXYZINE]                  Y
 9      Clc1ccc([C@@H](c2ccccc2)N2CCNCC2)cc1                  Y
10  CC(C)N1CCN([C@@H](c2ccccc2)c2ccc(Cl)cc2)CC1                  Y
11  CC(C)CN1CCN([C@@H](c2ccccc2)c2ccc(Cl)cc2)CC1                  Y
12            CN1CCC(N(c2ccccc2)c2ccccc2)CC1                  N
13  CCCN1CCN([C@@H](c2ccccc2)c2ccc(Cl)cc2)CC1                  Y
14       Clc1ccc(C(c2ccc(Cl)cc2)N2CCOCC2)cc1                  N
